These data points were gathered from patent US12599672B2.

Target: KRAS G12V (Homo sapiens, UniProt P01116, G12V)
Construct: SW620-KRAS (G12V)-HiBit-KI cell (Pharmaron); host or cells: SW620-KRAS (G12V)-HiBit-KI cells (HiBiT knock-in at the endogenous KRAS locus)
Sequence (P01116 1-188 isoform P01116-2 G12V): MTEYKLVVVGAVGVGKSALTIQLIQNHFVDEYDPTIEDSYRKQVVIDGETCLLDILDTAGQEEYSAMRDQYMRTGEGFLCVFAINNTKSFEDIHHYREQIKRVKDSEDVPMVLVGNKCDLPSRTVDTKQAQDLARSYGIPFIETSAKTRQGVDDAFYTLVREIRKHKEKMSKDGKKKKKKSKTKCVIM
Assay: KRAS G12V HiBit assay
Format: cell-based
Conditions: SW620-KRAS (G12V)-HiBit-KI cells, compound treatment for 24 hours, class symbols
observedProperty: DC50

* CCc1c(F)ccc2cc(O)cc(-c3ncc4c(N5CCC[C@@](C)(O)C5)nc(OC[C@@]56CCCN5[C@H](COC(=O)N5CCC7(CC5)CN(C5CCN(c8ccc9c(c8)n(C)c(=O)n9C8CCC(=O)NC8=O)CC5)C7)CC6)nc4c3F)c12 (stereo partly shown) | < 10 nM

Prompt: Value lookup for DC50; key = CCc1c(F)ccc2cc(O)cc(-c3ncc4c(N5CCC[C@@](C)(O)C5)nc(OC[C@@]56CCCN5[C@H](COC(=O)NC5CCN(CC7CCN(c8ccc9c(c8)n(C)c(=O)n9C8CCC(=O)NC8=O)CC7)CC5)CC6)nc4c3F)c12 (stereo partly shown)
Response: 10 to 100 nM

Prompt: Value lookup for DC50; key = C#Cc1c(F)ccc2cc(O)cc(-c3ncc4c(N5CCC[C@@](C)(O)C5)nc(OCC5(CN6CCC(CN7CCN(c8cccc9c8n(C)c(=O)n9C8CCC(=O)NC8=O)CC7)CC6)CC5)nc4c3F)c12 (stereo partly shown)
Response: < 10 nM

Prompt: Value lookup for DC50; key = C[C@H]1CN(CCOCCOCCOc2cccc3c2n(C)c(=O)n3C2CCC(=O)NC2=O)CCCN1c1nccc(-c2noc([C@@]3(C)CCCc4sc(N)c(C#N)c43)n2)n1 (stereo partly shown)
Response: > 100 nM

###

Biological target: KRAS G12V (Homo sapiens, UniProt P01116, G12V)
Construct: SW620-KRAS (G12V)-HiBit-KI cell (Pharmaron); host or cells: SW620-KRAS (G12V)-HiBit-KI cells (HiBiT knock-in at the endogenous KRAS locus)
Assay: KRAS G12V HiBit assay
Format: cell-based
Details: SW620-KRAS (G12V)-HiBit-KI cells, compound treatment for 24 hours, class symbols
observedProperty: DC50

- C#Cc1c(F)ccc2cccc(-c3ncc4c(N5CCC[C@@](C)(O)C5)nc(OCC5(CN6CCN(CC7CCN(c8ccc9c(c8)C(=O)N(C8CCC(=O)NC8=O)C9=O)CC7)CC6)CC5)nc4c3F)c12 (some centres unmarked): > 0.1 µM

Kindly consider the entry below.
Prompt: Value lookup for DC50; key = CCc1c(F)ccc2cc(O)cc(-c3ncc4c(N5CCC[C@@](C)(O)C5)nc(OC[C@]56CCCN5[C@H](COC(=O)N5CCC(CN7CCC(c8ccc9c(c8)n(C)c(=O)n9C8CCC(=O)NC8=O)CC7)CC5)CC6)nc4c3F)c12 (some centres unmarked)
Response: < 0.01 µM

###

Biological target: KRAS (Homo sapiens)
Construct: endogenous in cells; host or cells: KE39 (KRAS amplified) cells
Sequence (P01116 1-188 isoform P01116-2): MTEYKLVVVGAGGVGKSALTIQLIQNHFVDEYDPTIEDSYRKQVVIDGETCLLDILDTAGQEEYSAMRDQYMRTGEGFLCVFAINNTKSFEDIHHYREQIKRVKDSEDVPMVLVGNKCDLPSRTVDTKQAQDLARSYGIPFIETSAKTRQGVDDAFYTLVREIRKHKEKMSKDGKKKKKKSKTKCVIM
Experiment: KRASamp MSD assay
Assay type: cell-based
Conditions: KE39 (KRAS amplified) cells, treated with test compounds for 24 hr, MSD readout of KRAS degradation
Here, each record is paired with measured DC50 data.

* CCc1c(F)ccc2cc(O)cc(-c3ncc4c(N5CCCOCC5)nc(OC[C@@]56CCCN5[C@H](COC(=O)N5CCC7(CC5)CC(N5CCC(c8ccc9c(c8)n(C)c(=O)n9C8CCC(=O)NC8=O)CC5)C7)CC6)nc4c3F)c12 (some centres unmarked) | < 1 nM

Prompt: Write down the reported DC50 of C#Cc1c(F)ccc2cc(O)cc(-c3ncc4c(N5CCC[C@@](C)(O)C5)nc(OC[C@@]56CCCN5[C@H](COC(=O)N5CCC(N7CC(N8CCC(c9ccc%10c(c9)n(C)c(=O)n%10C9CCC(=O)NC9=O)CC8)C7)CC5)CC6)nc4c3F)c12 (some centres unmarked) , test system: KRAS (Homo sapiens).
Response: ≥ 10 nM
